Assignment: determine reported inhibition at 1 µM for the given compounds.
Experimental system: hNAMPT protein (Homo sapiens (Human))
Method: NAMPT enzyme assay (TR-FRET/HTRF with BodiPY ligand)
Assay type: binding
Applied conditions: NAMPT inhibition at compound concentration 1 μM; read-out: Percent Inhibition
Answers are plain numbers, in %.

Illustrative cases are given below, each with its answer.
[
  {
    "Compound smiles": "CCOc1cc(-c2ccc(C(F)(F)F)nc2)nc2cc(C(=O)NCCCc3nnc[nH]3)ccc12",
    "Readout kind": "inhibition at 1 µM",
    "Quantitative result": 94
  },
  {
    "Compound smiles": "CCOc1cc(-c2ccc(F)cc2)nc2cc(C(=O)NCCc3cc(N)[nH]n3)ccc12",
    "Readout kind": "inhibition at 1 µM",
    "Quantitative result": 93
  },
  {
    "Compound smiles": "CCOc1cc(-c2ccnc(OC)c2)nc2cc(C(=O)NCCc3[nH]nnc3C)ccc12",
    "Readout kind": "inhibition at 1 µM",
    "Quantitative result": 96
  },
  {
    "Compound smiles": "CCOc1cc(-c2ccc(F)c(Cl)c2)nc2cc(C(=O)NCCCc3ncc[nH]3)ccc12",
    "Readout kind": "inhibition at 1 µM",
    "Quantitative result": 99
  },
  {
    "Compound smiles": "CCN(C)c1nc(-c2ccc(F)cc2)nc2cc(C(=O)NCCCc3ncc[nH]3)ccc12",
    "Readout kind": "inhibition at 1 µM",
    "Quantitative result": 96
  }
]

Below are 6 compounds. Give each one its inhibition at 1 µM.
1. CCOc1cc(-c2ccc(C)nc2OC)nc2cc(C(=O)NCCCc3nc[nH]n3)ccc12
2. CCOc1cc(-c2ccc(F)c(F)c2)nc2cc(C(=O)NCCCc3ncc[nH]3)ccc12
3. CCOc1cc(-c2cnn(C)c2)nc2cc(C(=O)NCCCc3nnc[nH]3)ccc12
4. CCOc1cc(-c2cc(F)cnc2OC)nc2cc(C(=O)NCCCc3nnc[nH]3)ccc12
5. COCCOc1cc(-c2ccc(F)cc2)nc2cc(C(=O)NCCCc3cn[nH]n3)ccc12
6. CCOc1cc(OCC)c2ccc(C(=O)NCCCc3ncc[nH]3)cc2n1

a:
[94, 99, 66, 97, 100, 99]

q: Tell me measured inhibition at 1 µM for CCOc1cc(-c2ccc(C)nc2)nc2cc(C(=O)NCCc3[nH]nnc3C)ccc12 please.
a: 97

====

Assignment: determine reported inhibition at 1 µM for the given compounds.
Experimental system: hNAMPT protein (Homo sapiens (Human), UniProt P43490)
Sequence (P43490 whole entry): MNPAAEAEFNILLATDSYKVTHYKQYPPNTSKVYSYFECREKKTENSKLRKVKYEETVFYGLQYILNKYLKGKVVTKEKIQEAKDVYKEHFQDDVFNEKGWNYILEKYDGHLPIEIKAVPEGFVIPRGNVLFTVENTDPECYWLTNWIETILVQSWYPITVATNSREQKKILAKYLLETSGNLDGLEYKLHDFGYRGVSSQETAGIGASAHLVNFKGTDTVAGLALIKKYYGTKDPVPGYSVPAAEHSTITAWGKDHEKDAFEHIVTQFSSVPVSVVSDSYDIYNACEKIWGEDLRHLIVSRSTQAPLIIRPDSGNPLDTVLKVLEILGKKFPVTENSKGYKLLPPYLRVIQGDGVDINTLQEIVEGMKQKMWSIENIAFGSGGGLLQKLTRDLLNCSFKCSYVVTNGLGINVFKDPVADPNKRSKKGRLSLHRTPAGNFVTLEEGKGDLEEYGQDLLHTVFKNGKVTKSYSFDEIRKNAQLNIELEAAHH
Method: NAMPT enzyme assay (TR-FRET/HTRF with BodiPY ligand)
Assay type: binding
Applied conditions: NAMPT inhibition at compound concentration 1 μM; read-out: Percent Inhibition
Answers are plain numbers, in %.

[
  {
    "Compound smiles": "CCOc1cc(-c2ccc(Cl)cc2)nc2cc(C(=O)NCCCc3nnc[nH]3)ccc12",
    "inhibition at 1 µM, %": 94
  }
]

Below are 4 compounds. Give each one its inhibition at 1 µM.
1. CCOc1cc(-c2ccc(F)cc2OC)nc2cc(C(=O)NCCc3c[nH]nc3C)ccc12
2. CCOc1cc(-c2ccnc(C)c2)nc2cc(C(=O)NCCCc3ccn[nH]3)ccc12
3. CCOc1cc(-c2ccccc2)nc2cc(C(=O)NCCCc3nnc[nH]3)ccc12
4. CCOc1cc(C2CC2)nc2cc(C(=O)NCCCc3ncc[nH]3)ccc12

a:
96
96
96
96

====

The following compounds have recorded IC50 on hNAMPT protein (Homo sapiens (Human)).

[
  {
    "Compound": "CCOc1cc(-c2ccc(F)cc2)nc2cc(C(=O)NCCc3cncn3C)ccc12 [Compound I-2]",
    "Experimental system": "hNAMPT protein (Homo sapiens (Human))",
    "IC50": "< 10 nM"
  },
  {
    "Compound": "CCOc1cc(-c2ccnc(OC)c2)nc2cc(C(=O)NCCc3c[nH]nc3C)ccc12 [Compound I-100]",
    "Experimental system": "hNAMPT protein (Homo sapiens (Human))",
    "IC50": "50 to 100 nM"
  },
  {
    "Compound": "CCOc1cc(-c2ccc(C)nc2)nc2cc(C(=O)NCCCc3cnn[nH]3)ccc12 [Compound I-110]",
    "Experimental system": "hNAMPT protein (Homo sapiens (Human))",
    "IC50": "< 10 nM"
  },
  {
    "Compound": "CCOc1cc(-c2ccc(F)cc2)nc2cc(C(=O)NCCCc3nnc[nH]3)ccc12 [Compound I-5]",
    "Experimental system": "hNAMPT protein (Homo sapiens (Human))",
    "IC50": "< 10 nM"
  },
  {
    "Compound": "CCOc1cc(-c2ccn(C)c(=O)c2)nc2cc(C(=O)NCCCc3cnn[nH]3)ccc12 [Compound I-95]",
    "Experimental system": "hNAMPT protein (Homo sapiens (Human))",
    "IC50": "< 10 nM"
  },
  {
    "Compound": "CCOc1nc(-c2ccc(F)cc2)nc2cc(C(=O)NCCCc3ccnnc3)ccc12 [Compound I-29]",
    "Experimental system": "hNAMPT protein (Homo sapiens (Human))",
    "IC50": "< 10 nM"
  },
  {
    "Compound": "CCCc1nc(-c2ccc(Cl)cc2)nc2cc(C(=O)N[C@H]3C[C@@H](c4ncc[nH]4)C3)ccc12 [Compound I-3]",
    "Experimental system": "hNAMPT protein (Homo sapiens (Human))",
    "IC50": "10 to 50 nM"
  },
  {
    "Compound": "CCc1nc(-c2ccc(Cl)cc2)nc2cc(C(=O)NCCCc3ncc[nH]3)ccc12 [Compound I-33]",
    "Experimental system": "hNAMPT protein (Homo sapiens (Human))",
    "IC50": "10 to 50 nM"
  },
  {
    "Compound": "CCOc1cc(-c2ccc(F)cc2)nc2cc(C(=O)NCCc3nnc[nH]3)ccc12 [Compound I-131]",
    "Experimental system": "hNAMPT protein (Homo sapiens (Human))",
    "IC50": "10 to 50 nM"
  },
  {
    "Compound": "CCOc1c(F)c(-c2ccc(F)cc2)nc2cc(C(=O)NCCCc3cnn[nH]3)ccc12 [Compound I-73]",
    "Experimental system": "hNAMPT protein (Homo sapiens (Human))",
    "IC50": "< 10 nM"
  }
]

Below are 3 compounds. Give each one its IC50.
1. CCOc1cc(-c2ccc(F)cc2)nc2cc(C(=O)NCCCc3ncc[nH]3)ccc12 [Compound I-15]
2. CCOc1cc(-c2ccc(C)nc2OC)nc2cc(C(=O)NCCc3[nH]nnc3C)ccc12 [Compound I-87]
3. CCOc1cc(-c2ccc(Cl)cc2)nc2cc(C(=O)NCCCc3ncc[nH]3)ccc12 [Compound I-13]

a:
1: < 10 nM; 2: 10 to 50 nM; 3: < 10 nM

Below are 8 compounds. Give each one its IC50.
1. COCCOc1cc(-c2ccc(F)cc2)nc2cc(C(=O)NCc3ccn4ncnc4c3)ccc12 [Compound I-82]
2. CCOc1cc(-c2cncc(C)c2)nc2cc(C(=O)NCCCc3nnc[nH]3)ccc12 [Compound I-127]
3. CCOc1cc(-c2ccc(F)cc2)nc2cc(C(=O)NCCn3cncn3)ccc12 [Compound I-55]
4. CCOc1cc(OCC)c2ccc(C(=O)NCCCc3ncc[nH]3)cc2n1 [Compound I-61]
5. CCOc1cc(-c2ccnc(OC)c2)nc2cc(C(=O)NCCc3nnc[nH]3)ccc12 [Compound I-191]
6. CCOc1cc(-c2ccc(OC)nc2)nc2cc(C(=O)NCCc3nc[nH]n3)ccc12 [Compound I-186]
7. CCOc1cc(-c2ccc(F)cc2)nc2cc(C(=O)NCCc3nn[nH]n3)ccc12 [Compound I-221]
8. CCOc1cc(-c2cccnc2OC)nc2cc(C(=O)NCCc3nnc[nH]3)ccc12 [Compound I-180]

a:
< 10 nM
50 to 100 nM
50 to 100 nM
< 10 nM
> 100 nM
10 to 50 nM
> 100 nM
> 100 nM

Below are 3 compounds. Give each one its IC50.
1. CCOc1cc(-c2ccc(F)cc2)nc2cc(C(=O)N[C@H]3C[C@@H](c4ncc[nH]4)C3)ccc12 [Compound I-60]
2. CCOc1cc(-c2ccnc(OC)c2)nc2cc(C(=O)NCCc3cnn[nH]3)ccc12 [Compound I-195]
3. CCOc1cc(-c2ccc(F)cc2)nc2cc(C(=O)NCCCc3n[nH]nc3C)ccc12 [Compound I-133]

a:
1: < 10 nM; 2: 50 to 100 nM; 3: < 10 nM

Below are 3 compounds. Give each one its IC50.
1. O=C(NCCCc1ncc[nH]1)c1ccc2c(Cc3ccccc3)nc(-c3ccc(Cl)cc3)nc2c1 [Compound I-53]
2. CCOc1cc(-c2ccnc(OC)c2Cl)nc2cc(C(=O)NCCCc3nnc[nH]3)ccc12 [Compound I-166]
3. CCOc1cc(-c2cnc(OC)cc2C)nc2cc(C(=O)NCCCc3nnc[nH]3)ccc12 [Compound I-145]

a:
["10 to 50 nM", "10 to 50 nM", "> 100 nM"]

Ref: patent US10323018B2
